Test: NCI Yeast Anticancer Drug Screen. Data for the sgs1 mgt1 strain (AID 161);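 further: 0% = growth of cultures given vehicle only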
Conditions: S. cerevisiae sgs1 mgt1 strain, at 50.0 µM, stronger effect = higher value
Compounds without any hit were thinned out: in the full panel of roughly 79,000, 15% have a hit.
parameterMeasured: growth inhibition (%)
// units = %; emit number, no label

{"compound": "NC(=O)/C(=C\\c1ccc(OCc2ccccc2)c(OCc2ccccc2)c1)NC(=O)c1ccccc1", "growth inhibition / %": 44}
{"compound": "O=C1C2Nc3ccccc3N=C2OC1c1cccc([N+](=O)[O-])c1 (stereo unspecified)", "growth inhibition / %": 22.9}
{"compound": "CNC(=O)N(C)C(=O)c1ccncc1C(=O)N(C(=O)NC1CCCCC1)C1CCCCC1", "growth inhibition / %": 7.15}
{"compound": "CN(C)c1ccccc1CCO", "growth inhibition / %": -6.7}
{"compound": "O=c1c(Cl)c(N2CCCCC2)cnn1-c1ccccc1", "growth inhibition / %": 16.6}

// next entry
Query (compound): "CN(C)C(=O)CCOc1cccc2ccccc12" ; field requested: growth inhibition
-16
